Source listed as patent EP4592317A1.

Biological target: T1, Human 4-1BB extracellular domain recombinant protein (his-tag) (human, UniProt Q07011 24-186)
T1 construct: extracellular domain; also called Human4-1BB, his-tag; human 4-1BB extracellular region recombinant protein; not shown: his-tag
Assay: ELISA, coated human 4-1BB-his 200 ng/well; antibody 0.041 µg/ml

[
  {
    "binder": "137-36 VHH-hFc recombinant antibody (Fc fusion, VHH fragment inserted into vector pFclG with human IgG1 Fc tag, expressed in HEK293F; not shown: human IgG1 Fc tag of the eukaryotic expression vector pFclG) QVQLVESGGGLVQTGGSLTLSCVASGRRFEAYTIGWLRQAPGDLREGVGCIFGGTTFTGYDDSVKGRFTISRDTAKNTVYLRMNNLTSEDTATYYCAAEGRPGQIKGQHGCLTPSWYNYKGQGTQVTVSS",
    "absorbance at 450 nm": 0.372
  },
  {
    "binder": "137-12 VHH-hFc recombinant antibody (Fc fusion, VHH fragment inserted into vector pFclG with human IgG1 Fc tag, expressed in HEK293F; not shown: human IgG1 Fc tag of the eukaryotic expression vector pFclG) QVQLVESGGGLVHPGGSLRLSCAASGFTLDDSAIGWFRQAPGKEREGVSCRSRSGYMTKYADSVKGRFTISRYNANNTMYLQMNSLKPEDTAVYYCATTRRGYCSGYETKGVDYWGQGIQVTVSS",
    "absorbance at 450 nm": 0.355
  },
  {
    "binder": "137-1 VHH-hFc recombinant antibody (Fc fusion, also called CD137-1; not shown: human IgG1 Fc tag of the eukaryotic expression vector pFclG) QVQLVESGGGLVQPGGSLRLSCVASGFVFSTVTMGWGRQVPGKEFEWVSGVSSEGITDYADSVKGRFTISRDNAKNTVYLEMNSLKSEDTAEYYCLIGGRWSFGTWGQGTQVTVSS",
    "absorbance at 450 nm": 0.754
  }
]
